- TESTED_TARGET: Biotinylated CoV2 Spike ECD PreS-AVI protein (SARS-CoV-2, UniProt P0DTC2 14-1208)
- PROCEDURE_SUMMARY: Octet binning; competitor 13C8
PROPERTY: binning response

Some binders with known binning response results, for comparison:
BINDER	OBSERVED_RESULT
19C10 VHH-Fc (Fc fusion) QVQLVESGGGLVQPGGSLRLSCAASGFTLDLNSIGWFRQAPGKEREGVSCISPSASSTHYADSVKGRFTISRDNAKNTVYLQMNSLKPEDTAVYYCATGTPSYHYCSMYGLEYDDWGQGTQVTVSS	0.1
7A9 VHH-Fc (Fc fusion) QVQLVESGGGLVQAGGSLRLSCSASGGTASRSAMGWFRQAPGKEREFVAGISRRNSGSTYVADSYEDSVKGRFTISRDNAKNTIYLQMNSLKPEDTAVYYCAAEPTLGWYVPRRSVEYEYWGQGTQVTVSS	0.52
10B8 VHH-Fc (Fc fusion) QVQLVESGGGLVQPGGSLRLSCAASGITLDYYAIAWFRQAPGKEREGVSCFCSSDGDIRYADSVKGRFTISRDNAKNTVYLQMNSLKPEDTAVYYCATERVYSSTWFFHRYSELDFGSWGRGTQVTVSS	0.12

Now examine the next entry.
Quickly give me recorded binning response for 3D4 VHH-Fc (Fc fusion) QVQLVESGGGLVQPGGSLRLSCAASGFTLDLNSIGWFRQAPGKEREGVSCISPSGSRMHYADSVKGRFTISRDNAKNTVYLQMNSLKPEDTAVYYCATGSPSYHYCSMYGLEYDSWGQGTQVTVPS 0.1
